For each entry below, report its melting point value.

The cases that follow already have their melting point on record.
| COMPOUND | melting point |
| --- | --- |
| Cc1c(C(=O)Nc2ccc(N3CCC(N4CCOCC4)CC3)c(C(N)=O)c2)cnn1-c1ccc(Cl)cc1 | 270 °C |
| CC12CC(N3CCCCC3)C(O)CC1CCC1C2CCC2(C)C(O)C(N3CCC4(CC3)OCCO4)CC12 (stereo not given) | 183 to 185 °C |

Quick batch: melting point for everything below.
1. CCN(CC)C(=O)c1ccc([N+](=O)[O-])c(C)c1
2. O=[N+]([O-])c1c(NCCO)cccc1NCCO
3. CC(C)CSc1ccnc(OS(C)(=O)=O)c1
4. CC(C)(C)S(=O)(=O)NC(=O)c1cccc([N+](=O)[O-])c1
5. Cc1ccccc1-c1ccc2ccccc2c1C(=O)N(C)C

Completion:
["74.5 to 76 °C", "103 to 104 °C", "34 to 35 °C", "220 °C", "108 to 109 °C"]

Quick batch: melting point for everything below.
1. CCOCCNCc1ccc(C(=O)Nc2nc(-c3ccccc3)c(-c3ccc(=O)n(C(C)C)n3)s2)cc1
2. CCOC(=O)C1=C(COCCNC(N)=S)NC(C)=C(C(=O)OC)C1c1cccc(Cl)c1Cl (stereo not given)
3. COc1ccc2c(c1)CCC(C(=O)Cc1ccccc1)C2C#N (stereo not given)

Completion:
1: 153 to 154 °C; 2: 198 °C; 3: 139 to 142 °C

Origin of the recorded values: a melting point compilation (Tetko et al.; mined from patent text by program, amines drawn as free bases though some values may be those of a salt)
